Entry source: patent US20220040129A1

test: CARIV-A-001 Part A: single ascending IV doses over 20 minutes in healthy subjects; format: in vivo, human; details: both sexes, human, plasma, iv, 3.5 mg/kg, IV over 20 minutes, 3.5 mg/kg; read-out: AUCinf, Median
reported property: AUC(0-inf) (ng·h/mL)
// return numeric value only (unit: ng·h/mL, not printed)

Can you share its AUC(0-inf)? I mean this compound: NC(=O)N[C@@H](CCC(=O)O)C(=O)O
10900

----------
assay: CARIV-A-001 Part A: single ascending IV doses over 20 minutes in healthy subjects; format: in vivo, human; details: both sexes, human, plasma, iv, 5 mg/kg, IV over 20 minutes, 5.0 mg/kg; read-out: Clearance (Cl), Median
reported property: clearance
Answer with the value and then the unit.

Look at this molecule and give its reported clearance. NC(=O)N[C@@H](CCC(=O)O)C(=O)O
5 mL/min/kg

----------
experiment: CARIV-A-001 Part B: cross-over IV infusion over 2 hours vs oral tablet 100 mg/kg in healthy subjects; assay type: in vivo, human; conditions: both sexes, human, plasma, iv, 12 mg/kg, IV, 12 mg/kg, N 2; read-out: CL, Median (converted)
reported property: clearance (mL/min/kg)
Kindly answer with a numeric value in mL/min/kg, unit omitted.

Bench note: what clearance did NC(=O)N[C@@H](CCC(=O)O)C(=O)O show?
3.82

----------
test: CARIV-A-001 Part A: single ascending IV doses over 20 minutes in healthy subjects; assay type: in vivo, human; conditions: both sexes, human, plasma, iv, 5 mg/kg, IV over 20 minutes, 5.0 mg/kg; read-out: AUCinf, Median
reported property: AUC(0-inf) (ng·h/mL)
Return type: number; implicit unit ng·h/mL.

What measured AUC(0-inf) goes with NC(=O)N[C@@H](CCC(=O)O)C(=O)O ?
16600

----------
Experiment: CARIV-A-001 Part B: cross-over IV infusion over 2 hours vs oral tablet 100 mg/kg in healthy subjects
Format: in vivo, human
Settings: both sexes, human, plasma, oral, 100 mg/kg, OR, 100 mg/kg, N 12; read-out: CL/F, Median (converted)
Description: The levels of CGA in plasma and urine were analysed using a fully validated method, which included LC-MS/MS analysis. The PK data were analysed based on a non-compartmental model. […] The PK parameters were determined using SAS (version 9.3), and modelling of the PK data was performed using NONMEM (version 7.3, ICON Solutions). […] The PK analysis of Carbaglu was conducted on all subjects showing quantifiable plasma levels using standard non-compartmental approach.
reported property: CL/F (mL/min/kg)
Just the number in mL/min/kg, nothing appended.

May I ask what CL/F has been recorded for NC(=O)N[C@@H](CCC(=O)O)C(=O)O [carglumic acid, N-carbamoyl-L-glutamic acid] ?
55.2

----------
test: CARIV-A-001 Part A: single ascending IV doses over 20 minutes in healthy subjects; format: in vivo, human; settings: both sexes, human, plasma, iv, 7.5 mg/kg, IV over 20 minutes, 7.5 mg/kg; read-out: Volume of Distribution (Vd), Median
reported property: Vd (L/kg)
Reply with just the number (in L/kg).

What value of Vd has been recorded for this entry: NC(=O)N[C@@H](CCC(=O)O)C(=O)O
10.8

----------
assay: CARIV-A-001 Part B: cross-over IV infusion over 2 hours vs oral tablet 100 mg/kg in healthy subjects; assay type: in vivo, human; details: both sexes, human, plasma, oral, 100 mg/kg, OR, 100 mg/kg, N 12; read-out: HL (Half-life), Median (converted)
reported property: half-life (h)
State the answer as a number, implicitly in h.

Return reported half-life; argument: NC(=O)N[C@@H](CCC(=O)O)C(=O)O [carglumic acid, N-carbamoyl-L-glutamic acid]
23.7
